// provenance: ChEMBL document CHEMBL1961873

- Study System: Ephrin type-A receptor 4 (Homo sapiens) (UniProt P54764);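 also: mean inhibition of EPHA4 from the GSK PKIS screening set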
- Sequence (P54764 whole entry): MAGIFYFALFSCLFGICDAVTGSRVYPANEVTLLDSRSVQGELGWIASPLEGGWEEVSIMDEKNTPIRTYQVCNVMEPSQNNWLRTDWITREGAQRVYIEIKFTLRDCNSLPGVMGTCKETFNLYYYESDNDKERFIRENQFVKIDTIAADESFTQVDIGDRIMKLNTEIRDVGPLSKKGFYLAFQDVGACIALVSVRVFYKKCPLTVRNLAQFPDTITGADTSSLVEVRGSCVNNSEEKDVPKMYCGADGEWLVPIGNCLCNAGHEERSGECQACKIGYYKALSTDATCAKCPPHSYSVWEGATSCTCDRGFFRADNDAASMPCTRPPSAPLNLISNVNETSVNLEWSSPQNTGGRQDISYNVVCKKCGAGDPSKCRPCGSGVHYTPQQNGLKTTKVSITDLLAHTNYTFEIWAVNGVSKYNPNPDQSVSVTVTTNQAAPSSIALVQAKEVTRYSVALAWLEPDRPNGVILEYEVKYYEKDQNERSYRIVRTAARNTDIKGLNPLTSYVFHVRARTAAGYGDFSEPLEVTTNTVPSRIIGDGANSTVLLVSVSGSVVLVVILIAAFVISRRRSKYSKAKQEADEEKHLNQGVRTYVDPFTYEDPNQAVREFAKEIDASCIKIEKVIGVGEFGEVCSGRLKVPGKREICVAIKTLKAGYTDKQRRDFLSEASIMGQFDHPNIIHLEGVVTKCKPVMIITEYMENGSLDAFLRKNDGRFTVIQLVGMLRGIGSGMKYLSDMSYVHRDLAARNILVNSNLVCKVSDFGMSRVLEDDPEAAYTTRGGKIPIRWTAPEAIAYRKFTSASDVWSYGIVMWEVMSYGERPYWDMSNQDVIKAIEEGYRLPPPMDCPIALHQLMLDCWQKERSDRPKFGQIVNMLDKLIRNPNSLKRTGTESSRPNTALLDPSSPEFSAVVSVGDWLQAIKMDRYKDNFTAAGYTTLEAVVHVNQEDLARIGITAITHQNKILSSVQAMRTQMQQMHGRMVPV
- Test Conditions: at 0.1 µM
Quantity Measured: inhibition (%)
Give bare numbers, in %.

For every item below, please supply its inhibition.
1. COc1cc(C=NNc2ncnc3c2cnn3Cc2ccccc2)ccc1O
2. NC(=O)c1sc(-n2cnc3cc(C(F)(F)F)ccc32)cc1OCc1ccccc1Br

6.93
4.57

====

- Study System: Serine/threonine-protein kinase PAK 3 (Homo sapiens) (UniProt O75914);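 also: reported percentage is a mean inhibition value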
- Sequence (O75914 whole entry, looked up): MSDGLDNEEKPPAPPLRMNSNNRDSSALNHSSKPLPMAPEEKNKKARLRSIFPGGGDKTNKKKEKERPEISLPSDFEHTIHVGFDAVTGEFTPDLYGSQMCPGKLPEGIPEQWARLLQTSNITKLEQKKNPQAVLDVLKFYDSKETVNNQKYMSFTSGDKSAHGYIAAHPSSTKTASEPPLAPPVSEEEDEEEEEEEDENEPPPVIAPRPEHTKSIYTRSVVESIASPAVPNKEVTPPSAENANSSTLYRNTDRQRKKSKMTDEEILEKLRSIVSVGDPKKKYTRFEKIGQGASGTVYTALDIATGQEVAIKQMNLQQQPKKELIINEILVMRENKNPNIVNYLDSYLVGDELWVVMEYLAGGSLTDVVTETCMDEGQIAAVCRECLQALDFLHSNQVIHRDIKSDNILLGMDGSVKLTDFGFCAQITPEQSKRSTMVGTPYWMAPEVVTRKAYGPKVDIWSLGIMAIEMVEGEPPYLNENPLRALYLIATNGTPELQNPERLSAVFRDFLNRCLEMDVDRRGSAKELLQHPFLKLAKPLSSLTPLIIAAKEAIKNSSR
- Test Conditions: at 1 µM
So I've got a bunch of compounds here, and I need their inhibition values.
Give bare numbers, in %.

Use these answered entries as a reference point.
COc1cc2c(cc1Nc1nc(Nc3ccsc3C(N)=O)c3cc[nH]c3n1)N(C(=O)CN(C)C)CCC2	7.24
Cc1cc(-c2ccco2)cc(C)c1/C=C/c1cncc(-c2nn[nH]n2)c1	0.92
COc1cccc(-n2ncc3c(N/N=C/c4ccncc4)ncnc32)c1	5.78
CCn1c(-c2nonc2N)nc2c(C#CCN)ncc(OCCCN)c21	-0.65
Fc1ccc(-c2ncn(C3CCNCC3)c2-c2ccnc(Oc3ccccc3)n2)cc1	3.31

For the next question, use this compound.
Report inhibition for `CCn1c(-c2nonc2N)nc2c(C#CC(C)(C)O)nc(O[C@@H](CN)c3ccccc3)cc21` please.
15.6
